The reported measurements were obtained from the SangsterLogP compilation.

measured-property: logP

These recorded examples may help you get a feel for the data.
| mol-smiles | logP |
| --- | --- |
| CC(=NN=C(N)N)c1cccs1 | 1.05 |
| NC(N)=N/N=C/c1cccs1 | 0.98 |
| CCCCCC(CCC)=NNC(=N)N | 2.17 |
| C/C(=N/N/C(N)=N/c1ccccc1)c1ccccc1 | 2.18 |
| CCCCCC/C(C)=N\N=C(N)N | 2.08 |
| CCCC(CCC)=NNC(=N)N | 1.73 |

A: CCCCC(C)=NNC(N)=Nc1ccccc1
B: N=C(N)NN=Cc1ccccc1
Problem: Pick one: A or B . Which one has the lower reported logP? Lab note: record the label of whichever item you select.
Solution: B

a: NC(N)=N/N=C(\c1ccccc1)c1cccs1
b: NC(=Nc1ccccc1)NN=Cc1ccc2ccccc2n1
Problem: Between these two entries, a and b , state which has the higher logP. Field: selected label. Fill in the label of the entry you choose.
Solution: a
